# Test system: MALME-3M melanoma
# assay overview: NCI-60 one-dose screen, 48 h
# condition set: 10 µM unless noted
About 83,000 compounds went through this panel and 20% of them were active in at least one assay; those are over-represented in the sample as a whole. The source made the active and inactive calls. Rule for the calls: active = growth percent below 10; inactive = the rest.
Field 'call' accepts active, inactive

Consider the following illustrative entries.
CC[S][Hg][Cl]	inactive
O=C1CNC(c2ccccc2)c2cc(Cl)ccc2N1 (centres undefined)	inactive
O=C(NCCN1CC1)C(=O)NCCN1CC1	inactive
COC(=O)[C@@H](C)C[C@H](Cc1ccccc1)NC(=O)c1nc([C@@H](C[C@H](C(C)C)N(C)C(=O)[C@@H](NC(=O)[C@H]2CCCN2C)C(C)C)OC(C)=O)sc1C	inactive
COc1ccc2c(c1)c(C1(O)CC(CSC#N)OC1=O)cn2C(=O)c1ccc(Cl)cc1 (centres undefined)	inactive

Which outcome did this test record for the compound O=P(N1CC1)(N1CC1)N1CCc2ccccc21 ? inactive

Which outcome did this test record for the compound CC(=O)[O][Hg][O]C(C)=O ? inactive

* * *

Documented growth across a set of molecules
# Tested on: SK-MEL-28 melanoma
# assay overview: NCI-60 one-dose screen, 48 h (100 = growth as untreated, 0 = no growth, -100 = all killed)
# condition set: 10 µM unless noted
Compounds without any hit were thinned out: in the full panel of roughly 83,000, 20% have a hit.
Give the value, in units of %, as a plain number.

Check SK-MEL-28 melanoma data and give growth for Cc1cnc(/C=C/C(=O)O)cc1-c1cc2c(cc1C)C(C)(C)CCC2(C)C . 41.5

Check SK-MEL-28 melanoma data and give growth for CN1C(=O)C23CC4(C56CC78SSC(CO)(C(=O)N7C5Nc5ccccc56)N(C)C8=O)c5ccccc5NC4N2C(=O)C1(CO)SS3 (stereo not given) . -90.6

Check SK-MEL-28 melanoma data and give growth for Cn1cc(-c2csc(-c3cn(CCN4CCOCC4)c4ccc(F)cc34)n2)c2cccnc21 . 40.5

Check SK-MEL-28 melanoma data and give growth for COC(=O)C1OC(Oc2ccc(N(CCCl)CCCl)cc2)C(OC(C)=O)C(OC(C)=O)C1OC(C)=O (stereo not given) . 83.5

Check SK-MEL-28 melanoma data and give growth for Nc1ncnc2n[nH]nc12 . 87.6

* * *

Documented growth across a set of compounds
# Tested on: A498 renal
# assay overview: NCI-60 one-dose screen, 48 h (100 = growth as untreated, 0 = no growth, -100 = all killed)
# condition set: 10 µM
The panel holds about 83,000 compounds, 20% with a hit somewhere; the sample as a whole holds those more often.
Give the value, in units of %, as a plain number.

For orientation, consider the following solved cases.
O=C([O][Hg][CH2]C1OCCOC1[CH2][Hg][O]C(=O)c1ccccc1)c1ccccc1 (stereo not given)	132
ClCCN(CCCl)c1ccc(OCc2ccccc2)cc1	68.9
CCC1(C(C)C)C(=O)NC(=S)NC1=O	92.8
COc1cc2c(c(OC)c1OC)-c1ccc([O-])c(=O)cc1[C@@H](NC(C)=O)CC2.COc1cc2c(c(OC)c1OC)-c1ccc([O-])c(=O)cc1[C@@H](NC(C)=O)CC2.[Cu+2]	14.9

Next compound, please.
Answer with the recorded growth for the compound listed here: CNC(=O)Oc1ccc(N(C)C)cc1C(C)C 101

* * *

Documented growth across a set of compounds
# Test system: SF-295 CNS
# assay overview: NCI-60 one-dose screen, 48 h (100 = growth as untreated, 0 = no growth, -100 = all killed)
# condition set: 10 µM unless noted
The panel holds about 83,000 compounds, 20% with a hit somewhere; the sample as a whole holds those more often.
Give the value, in units of %, as a plain number.

COc1ccc(/C=C\c2cc(OC)c(OC)c(OC)c2)c(NS(=O)(=O)c2ccc(C)cc2)c1O	16.9
N#C[Se]CCN1C(=O)c2ccccc2C1=O	6.62

Answer with the recorded growth for the compound listed here: CC(C)CCC1(CCCl)C(=O)NC(=O)NC1=O 96.2

Answer with the recorded growth for the compound listed here: C/C=C(\C)C(=O)O[C@@H]1C(O)[C@H]2OC(COC(=O)CCC(=O)CCCCCC[C@H](CCCCC)O[C@@H]3OC(C)[C@H](OC(C)=O)C(O)[C@H]3O2)[C@H]1OC(=O)/C=C/c1ccccc1 (some centres undefined) -33.6

* * *

# Tested on: RPMI-8226 leukemia
# assay overview: NCI-60 one-dose screen, 48 h
# condition set: 10 µM unless noted
The panel holds about 83,000 compounds, 20% with a hit somewhere; the sample as a whole holds those more often. Calls of active or inactive are those of the source. Rule for the calls: active = growth percent below 10; inactive = the rest.
Field 'call' accepts True = active, False = inactive

CC(=O)OCC1O[C@@H]([S-])C(OC(C)=O)[C@H](OC(C)=O)[C@@H]1OC(C)=O.[Au+].c1ccc(CN2[CH-]N(Cc3ccccc3)C(c3ccccc3)=C2c2ccccc2)cc1	True
CC(C)=CCC/C(C)=C/C=N\N=C(/N)N[N+](=O)[O-]	False
COc1cc2c(c(OC)c1OC)-c1ccc([O-])c(=O)cc1[C@@H](NC(C)=O)CC2.COc1cc2c(c(OC)c1OC)-c1ccc([O-])c(=O)cc1[C@@H](NC(C)=O)CC2.[Cu+2]	False
O=C(N/N=C\c1ccc(N(CCCl)CCCl)cc1)c1cccc([N+](=O)[O-])c1	False
CCCCOc1ccc(C(N)Cc2ccccc2)cc1 (stereo not given)	False

Which outcome did this test record for the compound OCCCCCNC1CCCCC1 ? False

Which outcome did this test record for the compound COC(C(=O)[C@@H](O)[C@@H](C)O)[C@@H]1Cc2cc3cc(O[C@H]4C[C@@H](O[C@H]5C[C@@H](O)[C@H](O)C(C)O5)[C@H](O)C(C)O4)c(C)c(O)c3c(O)c2C(=O)[C@H]1O[C@H]1C[C@@H](O[C@H]2C[C@@H](O[C@H]3C[C@@H](O)[C@@H](O)C(C)O3)[C@@H](O)C(C)O2)[C@H](O)C(C)O1 (stereo not given in full) ? True

* * *

# System: HCT-116 colon
# assay overview: NCI-60 one-dose screen, 48 h (100 = growth as untreated, 0 = no growth, -100 = all killed)
# condition set: 10 µM unless noted
Compounds without any hit were thinned out: in the full panel of roughly 83,000, 20% have a hit.
measured attribute: growth (%)
Give the value, in units of %, as a plain number.

For orientation, consider the following solved cases.
COc1cc2c(cc1OCc1ccccc1)C(CC(C)C)=[N+](C)CC2	85.2
Cc1cc(N(CCCl)CCCl)ccc1/C=N\NC(=O)c1ccncc1	78.8

Check HCT-116 colon data and give growth for O=C1C2CC=CCC2C(=O)N1SC(Cl)(Cl)Cl (configuration not stated) . 66.5

Check HCT-116 colon data and give growth for COc1cc2c(=O)n(C3CCCCCCC3)c3c4cc[nH]c4ncc3c2cc1OC . 31.5

Check HCT-116 colon data and give growth for COC(=O)[C@@H](C)C[C@H](Cc1ccccc1)NC(=O)c1csc([C@@H](C[C@H](C(C)C)N(C)C(=O)[C@@H](NC(=O)C23CC(NC(C)=O)(C2)C3)C2CC2)OC(C)=O)n1 . 20.6

Check HCT-116 colon data and give growth for c1ccc(COc2ccc3[nH]cc(CCN(Cc4ccccc4)Cc4ccccc4)c3c2)cc1 . 60.3

Check HCT-116 colon data and give growth for COC(=O)[C@@H](C)C[C@H](Cc1ccccc1)NC(=O)c1cccc([C@@H](C[C@H](C(C)C)N(C)C(=O)[C@@H](NC(=O)[C@H]2CCCCN2C)C(C)C)OC(C)=O)n1 . 2.54

Check HCT-116 colon data and give growth for CCC(=O)Nc1ccc(Cl)c(Cl)c1 . 99.1

Check HCT-116 colon data and give growth for COC(=O)[C@H](Cc1ccccc1)NNC(=O)c1csc([C@@H](C[C@H](C(C)C)N(C)C(=O)[C@@H](NC(=O)[C@H]2CCCCN2C)C2CC2)OC(C)=O)n1 . 1.19

Check HCT-116 colon data and give growth for CCOC(=O)[C@@H](C)C[C@H](Cc1ccccc1)NC(=O)c1csc([C@@H](C[C@H](C(C)C)N(C)C(=O)[C@@H](NC(=O)[C@H]2CCCCN2C)C(C)(C)C)OC(C)=O)n1 . 2.35

Check HCT-116 colon data and give growth for CCOC(=O)N1CC1 . 98.4

Check HCT-116 colon data and give growth for N#Cc1c(Br)n(C2OC(CO)C(O)C2O)c2ncnc(N)c12 (configuration not stated) . 40.3

Check HCT-116 colon data and give growth for COC(=O)[C@H](Cc1ccccc1)NC(=O)c1csc([C@@H](C[C@H](C(C)C)N(C)C(=O)[C@@H](NC(=O)[C@H]2CCCCN2C)C2CC2)OC(C)=O)n1 . -16.9

Check HCT-116 colon data and give growth for CCCCN(CCCC)P(=O)(Oc1ccccc1)Oc1ccccc1 . 29.2

Check HCT-116 colon data and give growth for C[C@]12CC[C@H]3[C@@H](C[C@@H]4SC(Nc5ccccc5)=N[C@@]45CC(O)CC[C@]35C)[C@@H]1CCC2O (some centres not stated) . -81.5

Check HCT-116 colon data and give growth for CC(=O)OC1C(OC/C2=C/C3[C@@H](C(C)C)CC=C(C)[C@@H]3CC(OC(=O)/C=C/c3cn(C)cn3)[C@]3(C)C=C[C@@]2(O)O3)OCC(O)C1O (some centres not stated) . 4.11

Check HCT-116 colon data and give growth for CC(C)CCC(=O)O[C@H]1CC[C@H]2[C@@H]3CCC4=CC(=O)CC[C@]4(C)[C@H]3CC[C@]12C . 99.8
